system.under.test: T1, HER2 expressed on the surface of cells (human, UniProt P04626 23-1255)
T1 construct: whole, on cells; also called ErbB2
protocol.text: flow cytometry on MCF7 cells (low HER2), n=1; B50 = concentration at 50% of Bmax
parameter: B50 (nM)
Lab book: enter the figure in nM, no units written.

Per the records, this binder ( Variant 14022 (antibody, name in Kabat numbering, V domains shown, also called v14022) VH: EVQLVESGGGLVQPGGSLRLSCAASGFTFQDYTMDWVRQAPGKGLEWVGDVNPNSGGSIYNQRFKGRFTFSVDRSKNTLYLQMNSLRAEDTAVYYCARNLGPWFYFDYWGQGTLVTVSS VL: DIQMTQSPSSLSASVGDRVTITCKASQDVSIGVAWYQQKPGKAPKLLIWSASYRYTGVPSRFSGSGSGTDFTLTISSLQPEDFATYYCQQYYIYPYTFGQGTKVEIKR ) has B50 equal to 2

Then there is this binder:
Per the records, this binder ( Variant 14023 (antibody, name in Kabat numbering, V domains shown, also called v14023) VH: EVQLVESGGGLVQPGGSLRLSCAASGFTFQDYTMDWVRQAPGKGLEWVGDVNPNSGGSIYNQRFKGRFTFSVDRSWNTLYLQMNSLRAEDTAVYYCARNLGPWFYFDYWGQGTLVTVSS VL: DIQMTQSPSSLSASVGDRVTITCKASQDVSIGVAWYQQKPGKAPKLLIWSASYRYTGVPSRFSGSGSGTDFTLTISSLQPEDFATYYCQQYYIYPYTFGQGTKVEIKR ) has B50 equal to 0.8
